biological target: T1, LHD298B; test: BLI; biotinylated protomer on streptavidin biosensors, designed partner in solution; 25 °C; 10 mM HEPES pH 7.4, 150 mM NaCl, 3 mM EDTA, 0.05% Surfactant P20, 1 mg/ml BSA; global kinetic fit, 1:1 model; settings: both partners purified
T1 construct: de novo designed protomer; BLI: one protomer of the pair was Avi-tagged, biotinylated and immobilised; also called LHD298 protomer B; source: E. coli BL21 LEMO, purified (Ni-NTA, SEC)
measured metric: Kd (nM)
Number in nM, nothing else.

Fill in the blank: the reported Kd of LHD298A (designed binder) GRQEKVLKSIEETVRKMGVTMETHRSGNTVKVVIKGLHESQQEQLHKDVEETVQKEGVFVLVSHHGDTVTIQVYE is ____. 3.5
